- tested-target: T1, human C1s (human)
- T1 chain: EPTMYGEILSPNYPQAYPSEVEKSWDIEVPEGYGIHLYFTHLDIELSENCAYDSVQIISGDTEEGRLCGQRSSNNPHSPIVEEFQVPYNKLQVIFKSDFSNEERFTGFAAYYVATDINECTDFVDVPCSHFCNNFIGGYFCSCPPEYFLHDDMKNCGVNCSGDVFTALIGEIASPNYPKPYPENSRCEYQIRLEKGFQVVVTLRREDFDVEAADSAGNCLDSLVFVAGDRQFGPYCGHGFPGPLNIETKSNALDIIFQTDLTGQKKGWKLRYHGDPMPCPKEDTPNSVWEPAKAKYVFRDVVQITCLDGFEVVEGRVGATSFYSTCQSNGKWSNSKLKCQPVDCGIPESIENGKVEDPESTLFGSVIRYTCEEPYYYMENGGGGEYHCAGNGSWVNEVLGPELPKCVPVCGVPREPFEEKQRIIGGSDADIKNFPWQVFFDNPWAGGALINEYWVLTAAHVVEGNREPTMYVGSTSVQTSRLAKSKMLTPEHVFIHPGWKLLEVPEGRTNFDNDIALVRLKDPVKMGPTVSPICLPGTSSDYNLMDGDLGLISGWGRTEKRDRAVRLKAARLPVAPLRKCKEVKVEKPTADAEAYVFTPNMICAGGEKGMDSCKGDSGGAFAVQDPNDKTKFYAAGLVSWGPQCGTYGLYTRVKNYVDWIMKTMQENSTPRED
- protocol-description: SPR pH 5.8 low Ca 37C, low response
result-type: pKd
Numbers only, as −log10 of the molar value.

Recorded pKd of IPN92H0033/IPN93L0024 (antibody, V domains shown) VH: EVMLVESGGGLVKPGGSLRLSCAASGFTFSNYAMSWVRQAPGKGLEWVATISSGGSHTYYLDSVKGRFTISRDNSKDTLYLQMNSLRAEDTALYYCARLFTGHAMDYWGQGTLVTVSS VL: QIVLTQSPATLSLSPGERATLSCTASSSVSSSYLHWYQQKPGKAPKLWIYSTSNLASGVPSRFSGSGSGTDYTLTISSLQPEDFATYYCHQYYRLHPITFGQGTKLEIK , please.
8.28

Ref: patent US12084513
